The reported numbers originate from patent US6933315B2.

- EXPERIMENTAL_TARGET: immuno-purified cdk2 from LNCaP cells (Homo sapiens)
OBSERVABLE: IC50 (µM)
Report as a plain number; the unit µM is understood.

Record CC(=O)OC1COC(N2C(=O)/C(=C3/C(=O)Nc4ccccc43)c3ccccc32)C(OC(C)=O)C1OC(C)=O (stereo not shown) , field IC50: 1.6
